Assay: soluble on expression in E. coli; label from the status in PepcDB or PDB records

BIOPOLYMER SEQUENCE	soluble on expression in E. coli
SLQVDASGHQILLNYRKERSLQEFVPQVSLTEVLTGKINANTVKNKIVLIGTTAESFEDYSFTPNITNQGAIRKYQVLSLQAQMISQLLSAALDGRSLIWAWSVWQETIWIWGWSLTGSLLAWYIR	not soluble
GSARQQEIDMKRQQRFFRIPFIRPADQYKDPQNKKKGWWYAHFDGPWIARQMELHPDKPPILLVAGKDDMEMCELNLEETGLTRKRGAEILPRQFEEIWERCGGIQYLQSAIESRQARPTYATAMLQNLLKGSSGGSLVPR	soluble
MGSDKIHHHHHHMHLTQSTISQQLARLEESVGHSLIDRTARPLQLTASGEYLIGYAQRILTLQQEAEAVLKDPAGSIPIRIGLPEDMMSTAMAEVFGLFAQEHRTIRLDVTSGLSRNLTERYRNGELDIVIVKESAASADCYASFPEEMAWFESENAITPLSEPIRLVTFPQGGLYRDEMFETLERERRRWYIAFTGSSLESVLVSVETGLGISLLPVSTTKGRRVRRYKSLGEASPMVVSIYTWEKAGLISQLVDHMTTVLHDRFQSGS	not soluble
MRGPLLPPTVPGWRSRAERFDMAVLEAYEPIERRWQERVSQLDIAVDEIPRIAAKDPESVQWPPEVIADGPIALARLIPAGVDVRGNATRARIVLFRKPIERRAKDTEELGELLHEILVAQVAIYLDVDPSVIDPTIDD	soluble
TLTKHEQDILLKELGPHVDTPAHIVETGLGAYHALFTAHPQYISHFSRLEGHTIENVMQSEGIKHYARTLTEAIVHMLKEISNDAEVKKIAAQYGKDHTSRKVTKDEFMSGEPIFTKYFQNLVKDAEGKAAVEKFLKHVFPMMAAEI	soluble

====

Test: soluble on expression in E. coli; label from the status in PepcDB or PDB records
PROPERTY MEASURED: soluble on expression in E. coli

BIOPOLYMER SEQUENCE	READOUT VALUE
MRRAGLGEGVPPGNYGNYGYANSGYSACEEENERLTESLRSKVTAIKSLSIEIGHEVKTQNKLLAEMDSQFDSTTGFLGLCPM	soluble
MSLGDPGLKFQEYILQHIEPSKSYEIAICQSIGRRGKMEDTVVVDCSSIEGTDIIGVFDGHNGKDAAYLCTEQYIKTFKENEGTFEAKLIKTHKQLHDKSCETSKSGTTSTVAFIDKDTIRIAYCGDSPAYIYKNNKIKKITKEHKATNSAEVERIEMNGGVVFGMFGVKRVNGQIMVTRSIGDPSLHPPLTTEPDFIKLEKKGIELLFLMSDGITDGVTEKELEDIISKSGGMFNIAFDTLKLAYVNESSDNLTFIVIKINEGHHHHHH	soluble

====

Assay: soluble on expression in E. coli; label from the status in PepcDB or PDB records

BIOPOLYMER SEQUENCE	soluble on expression in E. coli
MGDDEARSWIRGDETAKQMLSRVLKDRAFLLIPPLHRVPLRAGNVVEITGASTSAKTQILIQAAISCILPKTWNGIHYGGLGKLVLFLDLDCRFDVLRLSQMLKHRLLQANWLGNGAWWQLEESNVKSCKSAEEKTKTVFDEELYASCMKRFLYVRCYDSLELLSSLKTLHYRIQQQEACGSQVGVLMIDSIGAFHWTDRLSSSLALETHNRKSLSLTNVVETIVQELKKLLLVHSLVVLATKGTIYEEKYPANENNRKVSSNDHFSGNVASKAQQPPFREFMPSSWQAFVTHKIIIRKSADYQSLQTGQQNLLAYSLEWLQPQLSRIDRFIVDDVRKLTTIKPFYSKLLLIYIVIPASSSHAVWYCHCLVT	soluble
AIAPAKERFFGFHPCKLVEQVEDCVRDLLEDALDGLETSLFRECALAFDALQENAVTSEHEHAKRLLLQQGLMRLRDALFTAFYDQMDRLQVYLLRNVFHIPPGLRIPNVNTSEDLVENWEQALGIDPSSVQIDANAEDEHAVDQELVALRQSLRVARQRLQRLCRERSVLEGAFHRLEGALQSRLASTLIPTEPEDPSGDCDALAKQVVTIARAVSELEAVVRSCRDQFLGDRSSAASGGAPPSGTVPAAAGGSDVGAQGALVRPPLELERIFDAHTKATRVDSLDAVDALRRALHRSC	soluble
MSLSTCPAACHCPLEAPKCAPGVGLVRDGCGCCKVCAKQLNEDCSKTQPCDHTKGLECNFGASSTALKGICRAQSEGRPCEYNSRIYQNGESFQPNCKHQCTCIDGAVGCIPLCPQELSLPNLGCPNPRLVKVTGQCCEEWVCDEDSIKDPMEEGHHHHHH	not soluble
MLTPTPDSSPRSTSSPSQSKNGSFTPRTANILKPLMSPPSREEIMATLLDHD	soluble
MQSSTEKELLTNASLTVSSDFASNLEGALPSQPITQANPRAEQTLMTTYMSSTTNQADPKTFEEQFVNLLGTFTPSQAVCNVSNVDCGTYVRGPETWSSCKLGTQAIAPNASYIQIRVQDKHSTMDRMNWKGPIEDTSPLMKSLTANFL	not soluble
MGSDKIHHHHHHMVILHIIAGLEKGGAESTLKRLCLNGTEHEHVVVSLSTLGSVGLELQKAGVKVYCLDIRPSITSVAAIFRLYKIIKLRKPSVVQTWMYHADLVGGIVSRVAGVKKIYWGVHHTYLIKGQSKRVTIFISRINSVLSHFIPTKIVYCANSARVAQEKIGYNKKSGIVIFNGYDTSKFKRDLKLRSVYREKLGLKETDFVIGHVGRYDSLKDYPNLINAIRKVKYKVGGLKVILVGAGLSKDNRELLNVISESTLISKFHLLGPSDDIPGIMNAIDVFVLSSSSEAFPNVLNEAMACGTPCVSTDVGDASAIVGMTGWLSAAGDSSALAEKIYAAYKEFSENKANWEERQYSCRERIVTNFSSQSMVSNYTLLWQS	not soluble

Just for reference, the DeepSol protein solubility set is where these values come from.
